tested-target: UniProtKB Q99558
experimental-details: NIK enzyme inhibition assay (Transcreener ADP, NIK ADP-FP)
Type: biochemical
measurement-setup: purified NIK 0.5 nM, 10 μM ATP, fluorescence polarization; read-out: NIK ADP-FP (Ki μM)
quantity-kind: log10(Ki) (log10 of the value in nM)
Hi team, quick reminder: these entries are log10 of Ki (nM).

In the examples that follow, each entry is paired with its recorded log10(Ki).
compound="CN1CCC[C@@](O)(C#Cc2cccc(-n3nc(C(N)=O)c4ccc(F)cc43)c2)C1=O [Compound 27]" result=0.57
compound="CN1CC[C@@](O)(C#Cc2cccc(-n3nc(C(N)=O)c4ccc(-c5cnn(C)c5)nc43)c2)C1=O [Compound 156]" result=-1.05
compound="CN1CC[C@@](O)(C#Cc2cccc(-c3nc(C(N)=O)c4cccnn34)c2)C1=O [Compound 86]" result=-0.14

INPUT: Supply recorded log10(Ki) for CN1CC[C@@](O)(C#Cc2cccc(-n3nc(C(N)=O)c4c3CCN(C3COC3)C4)c2)C1=O [Compound 33] here.
OUTPUT: 2.41

INPUT: Supply recorded log10(Ki) for CN1CC[C@@](O)(C#Cc2cccc(-n3nc(C(N)=O)c4cc(CN5CCCC5)ccc43)c2)C1=O [Compound 48] here.
OUTPUT: 1.81

###

Test system: REL-A (p65) nuclear translocation, HeLa cells
experimental-details: REL-A (p65) nuclear translocation assay in HeLa cells (classical NF-kB signaling, TNF-α stimulated)
Format: cell-based
measurement-setup: Homo sapiens, 0.5 h; HeLa cells, 10 ng/mL TNF-α for 30 minutes; read-out: REL-A HeLa Transloc Assay (IC50)
pIC50: −log10 of the molar value.
quantity-kind: pIC50

sample_smiles=Cc1nnc([C@](C)(O)C#Cc2cccc(-c3nc(C(N)=O)n4ccc(Cl)cc34)c2)o1 tested_target="REL-A (p65) nuclear translocation, HeLa cells" quantity_kind=pIC50 result="< 5.70"
sample_smiles=CN1CC[C@@](O)(C#Cc2cccc(-c3nc(C(N)=O)n4ccc(C(N)=O)cc34)c2)C1=O tested_target="REL-A (p65) nuclear translocation, HeLa cells" quantity_kind=pIC50 result="< 5.70"

Then this molecule:
INPUT: Supply recorded pIC50 for Cc1ccc2c(C(N)=O)nn(-c3cccc(C#C[C@]4(O)CCN(C)C4=O)c3)c2n1 here.
OUTPUT: < 5.70

###

Below is a list of entries, each paired with its recorded IC50 value.
Tested on: p52 (NF-kB2) nuclear translocation, HeLa cells
experimental-details: p52 (NF-kB2) nuclear translocation assay in HeLa cells (non-classical NF-kB signaling, anti-lymphotoxin beta receptor antibody stimulated)
Type: cell-based
measurement-setup: Homo sapiens, 100 ng/mL anti-lymphotoxin beta receptor antibody for 5 hours, read-out: p52 HeLa Transloc Assay (IC50)
Unit nM implied. Number only.

molecule=CN1CC[C@@](O)(C#Cc2cc(Cl)cc(-n3nc(C(N)=O)c4cccnc43)c2)C1=O tested_target="p52 (NF-kB2) nuclear translocation, HeLa cells" quantity_unit=nM result=62
molecule=COc1cc2c(cn1)c(C(N)=O)nn2-c1cccc(C#C[C@]2(O)CCN(C)C2=O)c1 tested_target="p52 (NF-kB2) nuclear translocation, HeLa cells" quantity_unit=nM result=38.2
molecule=NC(=O)c1nn(-c2cc(C#C[C@]3(O)CCNC3=O)ccn2)c2cc(F)ccc12 tested_target="p52 (NF-kB2) nuclear translocation, HeLa cells" quantity_unit=nM result=178

INPUT: Supply recorded IC50 for COc1ccn2c(C(N)=O)nc(-c3cccc(C#C[C@]4(O)CCN(C)C4=O)c3)c2c1 here.
OUTPUT: 6.6

INPUT: Supply recorded IC50 for C[C@@H](O)c1ccc2c(c1)c(C(N)=O)nn2-c1cccc(C#C[C@]2(O)CCN(C)C2=O)c1 here.
OUTPUT: 921

INPUT: Supply recorded IC50 for Cc1cc(C#C[C@]2(O)CCN(C)C2=O)cc(-n2nc(C(N)=O)c3cccnc32)c1 here.
OUTPUT: 45.8

INPUT: Supply recorded IC50 for CN1CC[C@@](O)(C#Cc2cccc(-n3nc(C(N)=O)c4cc(-c5cnn(CCO)c5)ccc43)c2)C1=O here.
OUTPUT: 440

INPUT: Supply recorded IC50 for CN1CC[C@@](O)(C#Cc2cccc(-n3nc(C(N)=O)c4cc(CO)ccc43)c2)C1=O here.
OUTPUT: 737

INPUT: Supply recorded IC50 for Cc1c(Cl)c(C(N)=O)nn1-c1cc(C#C[C@]2(O)CCN(C)C2=O)ccn1 here.
OUTPUT: 2710

INPUT: Supply recorded IC50 for COc1cnc2c(c1)c(C(N)=O)nn2-c1cccc(C#C[C@]2(O)CCN(C)C2=O)c1 here.
OUTPUT: 13.9

INPUT: Supply recorded IC50 for CN1CC[C@@](O)(C#Cc2cccc(-n3nc(C(N)=O)c4cccnc43)c2)C1=O here.
OUTPUT: 37.9

INPUT: Supply recorded IC50 for CN1CC[C@@](O)(C#Cc2ccnc(-n3nc(C(N)=O)c4ccc(F)cc43)c2)C1=O here.
OUTPUT: 27

INPUT: Supply recorded IC50 for CC(O)(C#Cc1cccc(-n2nc(C(N)=O)c3ccccc32)c1)c1nccs1 (single isomer, unassigned) here.
OUTPUT: 244

INPUT: Supply recorded IC50 for COc1ncc2c(C(N)=O)nn(-c3cccc(C#C[C@]4(O)CCN(C)C4=O)c3)c2n1 here.
OUTPUT: 66.8

INPUT: Supply recorded IC50 for Cc1nnc([C@](C)(O)C#Cc2cccc(-c3nc(C(N)=O)n4ccc(Cl)cc34)c2)o1 here.
OUTPUT: 198

INPUT: Supply recorded IC50 for CN1CC[C@@](O)(C#Cc2cccc(-n3nc(C(N)=O)c4cc(-c5cnn(C)c5)cnc43)c2)C1=O here.
OUTPUT: 26.7

INPUT: Supply recorded IC50 for Cc1nnc([C@](C)(O)C#Cc2cccc(-n3nc(C(N)=O)c4cccnc43)c2)o1 here.
OUTPUT: 893

INPUT: Supply recorded IC50 for CN1CC[C@@](O)(C#Cc2cccc(-n3nc(C(N)=O)c4c(NC5CC5)nccc43)c2)C1=O here.
OUTPUT: 53.1

INPUT: Supply recorded IC50 for COc1ccc2c(c1)c(C(N)=O)nn2-c1cccc(C#C[C@]2(O)CCN(C)C2=O)c1 here.
OUTPUT: 67.8

###

Below is a list of entries, each paired with its recorded Ki value.
tested-target: nuclear factor-kappa B (NF-kB)-inducing kinase (NIK) (Homo sapiens (Human))
Sequence (Q99558 whole entry): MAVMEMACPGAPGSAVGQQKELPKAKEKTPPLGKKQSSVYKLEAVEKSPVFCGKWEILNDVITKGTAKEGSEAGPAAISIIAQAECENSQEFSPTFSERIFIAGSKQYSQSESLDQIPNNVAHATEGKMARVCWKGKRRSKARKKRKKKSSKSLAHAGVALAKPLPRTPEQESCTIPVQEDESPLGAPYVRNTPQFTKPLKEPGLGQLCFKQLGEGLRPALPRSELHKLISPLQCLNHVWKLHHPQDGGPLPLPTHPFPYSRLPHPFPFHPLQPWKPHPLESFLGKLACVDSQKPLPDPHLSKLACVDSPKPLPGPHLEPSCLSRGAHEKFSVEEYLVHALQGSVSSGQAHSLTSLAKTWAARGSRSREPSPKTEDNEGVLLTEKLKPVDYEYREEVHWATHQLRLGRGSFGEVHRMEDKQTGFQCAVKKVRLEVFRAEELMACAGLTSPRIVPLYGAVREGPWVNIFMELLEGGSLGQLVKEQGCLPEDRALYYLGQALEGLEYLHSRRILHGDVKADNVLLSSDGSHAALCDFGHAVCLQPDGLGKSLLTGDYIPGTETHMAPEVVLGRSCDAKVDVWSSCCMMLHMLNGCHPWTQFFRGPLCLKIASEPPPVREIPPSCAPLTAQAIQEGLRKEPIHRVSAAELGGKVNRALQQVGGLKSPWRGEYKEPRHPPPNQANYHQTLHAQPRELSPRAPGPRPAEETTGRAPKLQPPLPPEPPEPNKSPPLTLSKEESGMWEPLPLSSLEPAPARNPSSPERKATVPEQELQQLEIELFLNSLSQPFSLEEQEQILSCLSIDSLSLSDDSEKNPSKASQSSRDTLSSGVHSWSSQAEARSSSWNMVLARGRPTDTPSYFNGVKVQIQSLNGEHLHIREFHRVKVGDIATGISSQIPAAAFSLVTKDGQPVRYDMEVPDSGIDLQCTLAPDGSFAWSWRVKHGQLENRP
experimental-details: NIK enzyme inhibition assay (Transcreener ADP, NIK ADP-FP)
Type: biochemical
measurement-setup: purified NIK 0.5 nM, 10 μM ATP, fluorescence polarization; read-out: NIK ADP-FP (Ki μM)
Unit µM implied. Number only.

In the examples that follow, each entry is paired with its recorded Ki.
sample_smiles=COc1ccn2c(C(N)=O)nc(-c3cccc(C#C[C@@](C)(O)c4nnc(C)o4)c3)c2c1 quantity_unit=µM result=0.0001
sample_smiles=CN1CC[C@@](O)(C#Cc2cccc(-n3nc(C(N)=O)c4c3COCC4)c2)C1=O quantity_unit=µM result=0.00398

INPUT: GET Ki where system = nuclear factor-kappa B (NF-kB)-inducing kinase (NIK) (Homo sapiens (Human)) and item = CN1CC[C@@](O)(C#Cc2ccnc(-n3nc(C(N)=O)c4c3CCC4)c2)C1=O
OUTPUT: 0.00087

INPUT: GET Ki where system = nuclear factor-kappa B (NF-kB)-inducing kinase (NIK) (Homo sapiens (Human)) and item = CN1CC[C@@](O)(C#Cc2cccc(-c3nc(C(N)=O)c4n3CCCC4)c2)C1=O
OUTPUT: 0.0339

INPUT: GET Ki where system = nuclear factor-kappa B (NF-kB)-inducing kinase (NIK) (Homo sapiens (Human)) and item = CN1CC[C@@](O)(C#Cc2cccc(-n3nc(C(N)=O)c4scnc43)c2)C1=O
OUTPUT: 0.00031

INPUT: GET Ki where system = nuclear factor-kappa B (NF-kB)-inducing kinase (NIK) (Homo sapiens (Human)) and item = COC1CN(c2cnc3c(c2)c(C(N)=O)nn3-c2cccc(C#C[C@]3(O)CCN(C)C3=O)c2)C1
OUTPUT: 0.00019

INPUT: GET Ki where system = nuclear factor-kappa B (NF-kB)-inducing kinase (NIK) (Homo sapiens (Human)) and item = COc1ccc2c(C(N)=O)nn(-c3cccc(C#C[C@]4(O)CCN(C)C4=O)c3)c2c1
OUTPUT: 0.00034

INPUT: GET Ki where system = nuclear factor-kappa B (NF-kB)-inducing kinase (NIK) (Homo sapiens (Human)) and item = CN1CC[C@@](O)(C#Cc2cccc(-n3nc(C(N)=O)c4c3CCC[C@@H]4O)c2)C1=O
OUTPUT: 0.00113

###

tested-target: nuclear factor-kappa B (NF-kB)-inducing kinase (NIK) (Homo sapiens (Human))
experimental-details: NIK enzyme inhibition assay (Transcreener ADP, NIK ADP-FP)
Format: biochemical
measurement-setup: purified NIK 0.5 nM, 10 μM ATP, fluorescence polarization; read-out: NIK ADP-FP (Ki μM)
Threshold 0.01 µM: Ki strictly smaller gives criterion met, otherwise criterion not met.

Worked examples follow.
sample_smiles=CN1CC[C@@](O)(C#Cc2cccc(-c3nc(C(N)=O)n4ccncc34)c2)C1=O group_label="criterion met"
sample_smiles=CN1CC[C@@](O)(C#Cc2ccnc(-n3nc(C(N)=O)c4c3CCC[C@@H]4NC(=O)C3CC3)c2)C1=O group_label="criterion not met"
sample_smiles=Cc1nnc([C@](C)(O)C#Cc2cccc(-n3nc(C(N)=O)c4ccccc43)c2)o1 group_label="criterion met"

INPUT: Say whether its Ki is strictly beneath 0.01 µM. Entry: CN1CC[C@@](O)(C#Cc2cccc(-n3nc(C(N)=O)c4ncccc43)c2)C1=O
OUTPUT: criterion met

INPUT: Say whether its Ki is strictly beneath 0.01 µM. Entry: CN1CC[C@@](O)(C#Cc2cccc(-n3nc(C(N)=O)c4c3[C@@H](O)CC4)c2)C1=O
OUTPUT: criterion not met
